Cited source: ChEMBL document CHEMBL1201862

- System: EKVX
- assay-protocol: NCI tumour cell line growth inhibition, 48 h
Calls of active or inactive are those of the source. Rule as the data show it: active = GI50 up to about 1.1 µM and inactive = higher. Non-standard residues stand in square brackets, D forms with d. Residues, ends and D or L forms follow the SMILES beside them. *: point of attachment. hSer = N[CH](CCO)C(=O)O; Boc = CC(C)(C)OC(=O)*
# key: entry, value: GI50

[
  {
    "compound": "O=[N+]([O-])c1ccc(-n2nnc(C3=NCCN3)c2-c2ccccc2)cc1",
    "tested-system": "EKVX",
    "GI50": "> 100 µM (inactive)"
  },
  {
    "compound": "COc1ccc(Oc2ccc3cc4c(cc3c2O)OCO4)c2cc(C)oc12",
    "tested-system": "EKVX",
    "GI50": "28.7 µM (inactive)"
  },
  {
    "compound": "O=C1c2cccc3cccc(c23)C(=O)N1O",
    "tested-system": "EKVX",
    "GI50": "> 100 µM (inactive)"
  },
  {
    "compound": "CC1(C)CC(O)CC(C)(C)N1O [TEMPOL HYDROXYLAMINE]",
    "tested-system": "EKVX",
    "GI50": "> 100 µM (inactive)"
  },
  {
    "compound": "C/C(=C\\Cc1ccc(F)cc1)CCCCCC/C(C)=C/Cc1ccc(F)cc1",
    "tested-system": "EKVX",
    "GI50": "14.9 µM (inactive)"
  },
  {
    "compound": "CC1(c2ccc(Cl)cc2)C=C(c2ccc(Cl)cc2)C(C#N)=C(C(C#N)C#N)N1.CNC (stereo unspecified)",
    "tested-system": "EKVX",
    "GI50": "16.6 µM (inactive)"
  },
  {
    "compound": "CS(=O)(=O)N/N=C/CN1C(=O)c2ccccc2C1=O",
    "tested-system": "EKVX",
    "GI50": "> 100 µM (inactive)"
  },
  {
    "compound": "CC(=O)c1c2c(cc3c1CC1(Cc4cc5c(cc4C1=O)CCC5)C3)CCC2 (stereo unspecified)",
    "tested-system": "EKVX",
    "GI50": "36.1 µM (inactive)"
  },
  {
    "compound": "COC(=O)CCc1cccnc1/C=N/O",
    "tested-system": "EKVX",
    "GI50": "> 100 µM (inactive)"
  },
  {
    "compound": "CCN(CC)CSc1nc2ccccc2[nH]1",
    "tested-system": "EKVX",
    "GI50": "> 100 µM (inactive)"
  },
  {
    "compound": "COc1ccccc1NC(=O)C1=C(C)NC(C)=C(C(=O)Nc2ccccc2OC)C1c1ccccc1F",
    "tested-system": "EKVX",
    "GI50": "50.2 µM (inactive)"
  },
  {
    "compound": "COCCC(NC(=O)C(CC(C)C)NC(=O)OC(C)(C)C)C(N)=O (stereo not drawn) (Boc-Leu-[hSer](Me)-NH2; configuration not given here)",
    "tested-system": "EKVX",
    "GI50": "> 100 µM (inactive)"
  },
  {
    "compound": "Cc1cccc2nc3c(=O)[nH]c(=O)nc-3n(C)c12",
    "tested-system": "EKVX",
    "GI50": "> 100 µM (inactive)"
  },
  {
    "compound": "O=C(O)CCCCCCC[C@H]1S[C@H]1CCCCCCO",
    "tested-system": "EKVX",
    "GI50": "> 100 µM (inactive)"
  },
  {
    "compound": "S=C1/C(=N/c2ccccc2)N(C2CCCCC2)/C(=N\\C2CCCCC2)N1c1ccccc1",
    "tested-system": "EKVX",
    "GI50": "> 100 µM (inactive)"
  },
  {
    "compound": "[O-][S+]1c2ccc(Cl)cc2CC(SSC2Cc3cc(Cl)ccc3[S+]([O-])c3ccccc32)c2ccccc21 (stereo unspecified)",
    "tested-system": "EKVX",
    "GI50": "> 100 µM (inactive)"
  },
  {
    "compound": "CC(C)CC(N/C=C1/N=C(c2ccccc2)OC1=O)C(=O)O (stereo unspecified)",
    "tested-system": "EKVX",
    "GI50": "> 100 µM (inactive)"
  },
  {
    "compound": "O=c1s[s+]([O-])c2ccccc12 (stereo unspecified)",
    "tested-system": "EKVX",
    "GI50": "> 100 µM (inactive)"
  },
  {
    "compound": "C=CCN(C(=O)OC(C)(C)C)C1=CC2C(C)=CN(S(=O)(=O)c3ccccc3)C2C(OCc2ccccc2)=C1 (stereo unspecified)",
    "tested-system": "EKVX",
    "GI50": "> 100 µM (inactive)"
  },
  {
    "compound": "COc1ccc(Nc2nc3ccccc3nc2C(=O)O)cc1OC",
    "tested-system": "EKVX",
    "GI50": "61.7 µM (inactive)"
  },
  {
    "compound": "COC(=O)c1s/c(=N\\C(=S)N(C)C)n(-c2ccccc2)c1C(=O)OC",
    "tested-system": "EKVX",
    "GI50": "> 100 µM (inactive)"
  }
]
